Just for reference, the RNAGym collection of RNA variant scans (doi:10.7554/elife.80360) is where these values come from.

B1: Twister Ribozyme (parent)
chain: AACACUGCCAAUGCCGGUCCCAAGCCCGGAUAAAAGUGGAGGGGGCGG

Variants of: B1
Assay: self-cleavage, relative activity (ratio to wild type); higher = more cleavage; co-transcriptional
# label = yes if self-cleavage >= 0.1 else no

Say whether A32U A34G shows self-cleavage of 0.1 or more.
yes

Then C15G G43A ?
no

Then C15U G42C ?
yes

Then C3U G41A ?
yes

Then A30G A32G ?
yes

Then C21G A33U ?
no
